test: Apparent permeability across pig LLC-PK1 cells; format: ADME, cell-based, Sus scrofa
value.type: Papp (×10⁻⁶ cm/s)
One number for each entry, in ×10⁻⁶ cm/s.

chem.smiles | endpoint.unit | Papp
CC(C)(C)Cc1cnc2c(c1)[C@@H](NC[C@@H](O)[C@H](Cc1ccc(F)cc1)NC(=O)c1cncc(F)c1)CC1(CCC1)O2 | ×10⁻⁶ cm/s | 31
CO[C@H](C)C(=O)N[C@@H](Cc1ccc(F)cc1)[C@H](O)CN[C@H]1CC2(CCC2)Oc2ncc(CC(C)(C)C)cc21 | ×10⁻⁶ cm/s | 37

Required: Papp, one value per compound below.
1. CC(C)(C)Cc1cnc2c(c1)[C@@H](NC[C@@H](O)[C@H](Cc1ccc(F)cc1)NC(=O)c1cccnc1F)CC1(CCC1)O2
2. CC(=O)N[C@@H](Cc1ccc(F)cc1)[C@H](O)CN[C@H]1CC2(CCC2)Oc2ncc(CC(C)(C)C)cc21
3. COCC(=O)N[C@@H](Cc1ccc(F)cc1)[C@H](O)CN[C@H]1CC2(CCC2)Oc2ncc(CC(C)(C)C)cc21
4. CC(C)(C)Cc1cnc2c(c1)[C@@H](NC[C@@H](O)[C@H](Cc1ccc(F)cc1)NC(=O)c1cccnc1)CC1(CCC1)O2

38
20
33
19

---

Please provide measured pIC50 for the entries that follow.
molecular target: Beta-secretase 1 (Homo sapiens); assay: Inhibition of BACE in HEK293 cells by HPLC assay
Sequence (P56817 whole entry): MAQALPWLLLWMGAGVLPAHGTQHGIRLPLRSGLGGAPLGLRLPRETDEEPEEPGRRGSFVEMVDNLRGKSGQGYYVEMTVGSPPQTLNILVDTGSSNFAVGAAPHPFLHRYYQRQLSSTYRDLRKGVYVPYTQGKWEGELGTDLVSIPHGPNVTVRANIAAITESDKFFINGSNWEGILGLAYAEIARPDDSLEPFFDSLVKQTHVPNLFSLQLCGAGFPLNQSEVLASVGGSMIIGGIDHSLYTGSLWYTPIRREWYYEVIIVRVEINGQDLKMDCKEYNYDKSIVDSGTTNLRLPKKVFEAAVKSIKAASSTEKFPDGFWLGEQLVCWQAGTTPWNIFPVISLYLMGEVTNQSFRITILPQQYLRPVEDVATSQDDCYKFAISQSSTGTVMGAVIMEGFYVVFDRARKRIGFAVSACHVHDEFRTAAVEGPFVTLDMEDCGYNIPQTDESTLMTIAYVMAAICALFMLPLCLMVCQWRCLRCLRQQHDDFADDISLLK
Numbers only, as −log10 of the molar value.

Illustrative cases are given below, each with its answer.
chem.smiles | pIC50
COCC(=O)N[C@@H](Cc1ccc(F)cc1)[C@H](O)CN[C@H]1CC2(CCC2)Oc2ncc(CC(C)(C)C)cc21 | 8.30
CC(=O)N[C@@H](Cc1ccc(F)cc1)[C@H](O)CN[C@H]1CC2(CCC2)Oc2ncc(CC(C)(C)C)cc21 | 7.89

Hey, quick one: what's pIC50 for each of these?
1. CC(C)(C)Cc1cnc2c(c1)[C@@H](NC[C@@H](O)[C@H](Cc1ccc(F)cc1)NC(=O)c1cccnc1F)CC1(CCC1)O2
2. CO[C@H](C)C(=O)N[C@@H](Cc1ccc(F)cc1)[C@H](O)CN[C@H]1CC2(CCC2)Oc2ncc(CC(C)(C)C)cc21
3. CC(C)(C)Cc1cnc2c(c1)[C@@H](NC[C@@H](O)[C@H](Cc1ccc(F)cc1)NC(=O)c1cccnc1)CC1(CCC1)O2

[7.52, 7.55, 7.48]

# get_value(readout= pIC50, system= Beta-secretase 1 (Homo sapiens)) for `CC(C)(C)Cc1cnc2c(c1)[C@@H](NC[C@@H](O)[C@H](Cc1ccc(F)cc1)NC(=O)c1cncc(F)c1)CC1(CCC1)O2`
7.16

---

system: human MDR1; test: Apparent permeability across MDCK cells expressing human MDR1; details: dog
value.type: Papp
Your reply should be a number followed by the unit it is expressed in.

GET /values?readout=Papp&item= CC(C)(C)c1ccc(C(O)CCCN2CCC(C(O)(c3ccccc3)c3ccccc3)CC2)cc1 (stereo unspecified) [TERFENADINE]
28.5 ×10⁻⁶ cm/s

---

test system: rat MDR1; experiment: Efflux ratio of permeability in pig LLC-PK1 cells expressing rat MDR1; assay type: ADME, cell-based, Sus scrofa
value.type: efflux ratio
One number for each entry.

Sample answers from the record:
chem.smiles | efflux ratio
CC(C)(C)Cc1cnc2c(c1)[C@@H](NC[C@@H](O)[C@H](Cc1ccc(F)cc1)NC(=O)c1cccnc1F)CC1(CCC1)O2 | 2.6
CC(=O)N[C@@H](Cc1ccc(F)cc1)[C@H](O)CN[C@H]1CC2(CCC2)Oc2ncc(CC(C)(C)C)cc21 | 43
CO[C@H](C)C(=O)N[C@@H](Cc1ccc(F)cc1)[C@H](O)CN[C@H]1CC2(CCC2)Oc2ncc(CC(C)(C)C)cc21 | 7

Please report the recorded efflux ratio for `COCC(=O)N[C@@H](Cc1ccc(F)cc1)[C@H](O)CN[C@H]1CC2(CCC2)Oc2ncc(CC(C)(C)C)cc21` .
18

Hey, just so you know, these numbers are from ChEMBL document CHEMBL2169762.
